Lab note - cut at 200 °C for melting point: Met if strictly below, Not met if not.

compound	category label
Cn1c(NC(=O)NCC(=O)[O-])nc2ccccc21.[K+] [KHG26172]	Not met
CCOC(=O)CCNC(=O)Nc1nc2ccccc2[nH]1 [KHG26027]	Not met
CCOC(=O)CNC(=S)Nc1nc2ccc(OCC)cc2s1 [KHG26309]	Met
O=C(O)CNC(=S)Nc1nc2ccc(Cl)cc2s1 [KHG26341]	Met
O=C(NCc1nn[nH]n1)Nc1nc2ccccc2s1 [KHG26345]	Not met

Okay, next one:
Input CCOC(=O)CCCNC(=O)Nc1nc2ccccc2[nH]1 [KHG26028] ; condition: melting point strictly below 200 °C. Does it hold?
Not met
